Reference source: patent US5962502A

test target: CCK-A (Cavia porcellus)
Construct: A longitudinal strip of guinea-pig gall-bladder was put in a bath for isolated organs
Sequence (Q63931 whole entry): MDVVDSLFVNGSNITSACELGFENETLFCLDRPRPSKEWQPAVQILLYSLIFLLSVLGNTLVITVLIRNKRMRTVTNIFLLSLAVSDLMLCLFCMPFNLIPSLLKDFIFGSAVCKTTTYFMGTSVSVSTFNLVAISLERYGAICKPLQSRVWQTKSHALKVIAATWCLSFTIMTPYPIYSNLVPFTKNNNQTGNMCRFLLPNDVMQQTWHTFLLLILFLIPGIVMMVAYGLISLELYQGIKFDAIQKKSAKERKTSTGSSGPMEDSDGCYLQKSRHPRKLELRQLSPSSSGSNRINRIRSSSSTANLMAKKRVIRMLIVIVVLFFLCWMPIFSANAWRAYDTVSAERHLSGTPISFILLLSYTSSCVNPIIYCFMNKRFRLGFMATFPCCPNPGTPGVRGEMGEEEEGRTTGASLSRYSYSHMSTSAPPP
assay info: Anti-CCK-A activity on guinea-pig gall bladder stimulated in vitro by CCK-8
conditions: guinea-pig gall bladder in vitro, CCK-8 10 ng/ml; read-out: CCK-A-antagonistic activity IC50 (I)
Recorded pIC50 values for a group of molecules are listed next.
Bear in mind: pIC50 is minus log10 of a mol/L concentration; give just that figure.

Example results:
Q) What does the data say about its pIC50? Entry: O=C(O)CC[C@@H](NC(=O)c1cc(Cl)cc(Cl)c1)C(=O)N1CCC2(CCCC2)CC1 [CR 2194, reference compound]
A) 4.87

Q) What does the data say about its pIC50? Entry: CCCCCN(CCCCC)C(=O)C(CCC(=O)O)NC(=O)c1ccc(Cl)c(Cl)c1 (stereo not drawn) [R-lorglumide, reference compound]
A) 7.30

Q) What does the data say about its pIC50? Entry: O=C(CC[C@@H](NC(=O)c1cc(Cl)cc(Cl)c1)C(=O)N1CCC2(CCCC2)CC1)N[C@H](Cc1cccc2ccccc12)C(=O)O [Compound 25]
A) 5.07

Q) What does the data say about its pIC50? Entry: O=C(CC[C@@H](NC(=O)c1cc(Cl)cc(Cl)c1)C(=O)N1CCC2(CCCC2)CC1)N[C@H](Cc1ccc2ccccc2c1)C(=O)O [Compound 24]
A) 4.34

Q) What does the data say about its pIC50? Entry: O=C(CC[C@@H](NC(=O)c1cc(Cl)cc(Cl)c1)C(=O)N1CCC2(CCCC2)CC1)N[C@H](Cc1ccccn1)C(=O)O [Compound 27]
A) 5.47

Now let's try a different one.
Q) What does the data say about its pIC50? Entry: O=C(CC[C@@H](NC(=O)c1cc(Cl)cc(Cl)c1)C(=O)N1CCC2(CCCC2)CC1)N[C@H](Cc1ccccc1)C(=O)O [Compound 9]
A) 5.27
